Data provenance is the supplement of paper PMC10567573.

B1: RHOBTB3 (parent)
chain: DSCCPAGIFQAMCLLICAEMYQVS

variants of: B1; experiment: protein stability index of a GFP-peptide fusion (GPS, HEK-293T) (PSI 1-6); higher = more stable; details: c terminus: a fixed tail appended;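 also: lentivirally expressed fusions sorted by FACS into six bins by GFP to DsRed ratio, PSI derived from sequencing read proportions per bin multiplied by bin number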
Each entry falls in a class defined on protein stability index; the bands are lo = under 2, mid = from 2 up to 3, hi = 3 and over

[[record]]
ordered_residues = "DSCCPAGIFQAMCLHICAEMYQVS [L15H]"
class_assignment = "lo"

[[record]]
ordered_residues = "DSCCPAEIFQAMCLLICAEMYQVS [G7E]"
class_assignment = "lo"

[[record]]
ordered_residues = "DSCCPMGIFQAMCLLICAEMYQVS [A6M]"
class_assignment = "hi"

[[record]]
ordered_residues = "DSCCPAGIFQAMCLWICAEMYQVS [L15W]"
class_assignment = "lo"

[[record]]
ordered_residues = "DSCGPAGIFQAMCLLICAEMYQVS [C4G]"
class_assignment = "mid"

[[record]]
ordered_residues = "DSCCPAGIFQYMCLLICAEMYQVS [A11Y]"
class_assignment = "hi"

[[record]]
ordered_residues = "DWCCPAGIFQAMCLLICAEMYQVS [S2W]"
class_assignment = "hi"

[[record]]
ordered_residues = "DSCCPAGIFQAMCALICAEMYQVS [L14A]"
class_assignment = "hi"

[[record]]
ordered_residues = "DSCCPAGIFQAMCLLICASMYQVS [E19S]"
class_assignment = "mid"

[[record]]
ordered_residues = "DSCCPANIFQAMCLLICAEMYQVS [G7N]"
class_assignment = "mid"

[[record]]
ordered_residues = "DSCCPAGIFQAMCLLICAEMYTVS [Q22T]"
class_assignment = "hi"

[[record]]
ordered_residues = "DSCCPAGIFPAMCLLICAEMYQVS [Q10P]"
class_assignment = "mid"

[[record]]
ordered_residues = "DSCCPAGIFQAMCLLICAEMKQVS [Y21K]"
class_assignment = "lo"

[[record]]
ordered_residues = "DSCCPAGIFQAMCLLIDAEMYQVS [C17D]"
class_assignment = "lo"

[[record]]
ordered_residues = "DSCCPAGIFQAMCLLICAEMYQCS [V23C]"
class_assignment = "hi"

[[record]]
ordered_residues = "DSCCPAGIEQAMCLLICAEMYQVS [F9E]"
class_assignment = "hi"

[[record]]
ordered_residues = "ESCCPAGIFQAMCLLICAEMYQVS [D1E]"
class_assignment = "mid"

[[record]]
ordered_residues = "DSCCPAGIFQAMCLIICAEMYQVS [L15I]"
class_assignment = "hi"

[[record]]
ordered_residues = "DSCCKAGIFQAMCLLICAEMYQVS [P5K]"
class_assignment = "mid"

[[record]]
ordered_residues = "PSCCPAGIFQAMCLLICAEMYQVS [D1P]"
class_assignment = "lo"

[[record]]
ordered_residues = "DSCCPAGIFQAMQLLICAEMYQVS [C13Q]"
class_assignment = "hi"

[[record]]
ordered_residues = "DSCCPAGIFQAMCLLIHAEMYQVS [C17H]"
class_assignment = "hi"

[[record]]
ordered_residues = "DSCCPCGIFQAMCLLICAEMYQVS [A6C]"
class_assignment = "hi"

[[record]]
ordered_residues = "DSCTPAGIFQAMCLLICAEMYQVS [C4T]"
class_assignment = "mid"

[[record]]
ordered_residues = "DSCCPAGIPQAMCLLICAEMYQVS [F9P]"
class_assignment = "lo"

[[record]]
ordered_residues = "DSCCPAGIFQAMCILICAEMYQVS [L14I]"
class_assignment = "mid"

[[record]]
ordered_residues = "DSCCPAGIFQAMCLLICAEMYQKS [V23K]"
class_assignment = "mid"

[[record]]
ordered_residues = "DSCCPKGIFQAMCLLICAEMYQVS [A6K]"
class_assignment = "hi"

[[record]]
ordered_residues = "DSCCPPGIFQAMCLLICAEMYQVS [A6P]"
class_assignment = "mid"

[[record]]
ordered_residues = "DSCPPAGIFQAMCLLICAEMYQVS [C4P]"
class_assignment = "mid"

[[record]]
ordered_residues = "DSCCPAGIFQAMCLLICAEMYQIS [V23I]"
class_assignment = "hi"

[[record]]
ordered_residues = "DICCPAGIFQAMCLLICAEMYQVS [S2I]"
class_assignment = "hi"

[[record]]
ordered_residues = "DSHCPAGIFQAMCLLICAEMYQVS [C3H]"
class_assignment = "lo"

[[record]]
ordered_residues = "DSKCPAGIFQAMCLLICAEMYQVS [C3K]"
class_assignment = "hi"

[[record]]
ordered_residues = "DSCCPAIIFQAMCLLICAEMYQVS [G7I]"
class_assignment = "hi"

[[record]]
ordered_residues = "ASCCPAGIFQAMCLLICAEMYQVS [D1A]"
class_assignment = "hi"

[[record]]
ordered_residues = "DSCCPAGIFQAMCLLICAEMYRVS [Q22R]"
class_assignment = "hi"

[[record]]
ordered_residues = "DSCCPAGIFQAMCLLICAEMYQDS [V23D]"
class_assignment = "lo"

[[record]]
ordered_residues = "DSCMPAGIFQAMCLLICAEMYQVS [C4M]"
class_assignment = "hi"

